- System: MDR P. aeruginosa PA 910
- protocol_notes: microbe, parasite or virus in culture
- Format: cell-based, Pseudomonas aeruginosa
- protocol_conditions: MDR PA 910, 18 h
Peptide text beside a SMILES is read from it.
measured_metric: MIC against PA910 in μM (peptides, Table 4)

GET /values?readout=MIC against PA910 in μM (peptides, Table 4)&item= CC[C@H](C)[C@H](NC(=O)[C@@H](N)Cc1ccccc1)C(=O)N[C@@H](CCCCN)C(=O)N[C@@H](Cc1c[nH]c2ccccc12)C(=O)N[C@@H](CCCCN)C(=O)N[C@@H](CCCCN)C(=O)N[C@@H](CCCNC(=N)N)C(=O)N[C@@H](Cc1c[nH]c2ccccc12)C(=O)N[C@@H](Cc1c[nH]c2ccccc12)C(=O)N[C@@H](CCCCN)C(=O)N[C@@H](CCCCN)C(=O)N[C@@H](CCCNC(=N)N)C(=O)N[C@H](C(N)=O)[C@@H](C)O [Indopt 1] (H-FIKWKKRWWKKRT-NH2) 8 µM

GET /values?readout=MIC against PA910 in μM (peptides, Table 4)&item= CC[C@H](C)[C@H](NC(=O)[C@@H](N)Cc1ccccc1)C(=O)N[C@@H](CCCCN)C(=O)N[C@@H](Cc1c[nH]c2ccccc12)C(=O)N[C@@H](CCCNC(=N)N)C(=O)N[C@@H](CO)C(=O)N[C@@H](CCCNC(=N)N)C(=O)N[C@@H](Cc1c[nH]c2ccccc12)C(=O)N[C@@H](Cc1c[nH]c2ccccc12)C(=O)N[C@@H](CCCCN)C(=O)N[C@@H](CCCCN)C(=O)N[C@@H](CCCNC(=N)N)C(=O)N[C@H](C(N)=O)[C@@H](C)O [Indopt 3] (H-FIKWRSRWWKKRT-NH2) 8 µM

GET /values?readout=MIC against PA910 in μM (peptides, Table 4)&item= CC[C@H](C)[C@H](N)C(=O)N[C@@H](CC(C)C)C(=O)N[C@@H](CCCCN)C(=O)N[C@@H](Cc1c[nH]c2ccccc12)C(=O)N[C@@H](CCCCN)C(=O)N[C@@H](CCCNC(=N)N)C(=O)N[C@@H](CCCCN)C(=O)N[C@@H](Cc1c[nH]c2ccccc12)C(=O)N[C@@H](Cc1c[nH]c2ccccc12)C(=O)N[C@@H](CCCCN)C(=O)N[C@@H](Cc1c[nH]c2ccccc12)C(=O)N[C@@H](Cc1ccccc1)C(=O)N[C@@H](CCCNC(=N)N)C(N)=O [Indopt 7] (H-ILKWKRKWWKWFR-NH2) 4 µM

GET /values?readout=MIC against PA910 in μM (peptides, Table 4)&item= CC[C@H](C)[C@H](NC(=O)[C@@H](N)Cc1ccccc1)C(=O)N[C@@H](CCCCN)C(=O)N[C@@H](Cc1c[nH]c2ccccc12)C(=O)N[C@@H](CCCNC(=N)N)C(=O)N[C@@H](Cc1ccccc1)C(=O)N[C@@H](CCCNC(=N)N)C(=O)N[C@@H](CCCNC(=N)N)C(=O)N[C@@H](Cc1c[nH]c2ccccc12)C(=O)N[C@@H](CCCCN)C(=O)N[C@@H](CCCCN)C(=O)N[C@@H](CCCNC(=N)N)C(=O)N[C@H](C(N)=O)[C@@H](C)O [Indopt 2] (H-FIKWRFRRWKKRT-NH2) 8 µM

GET /values?readout=MIC against PA910 in μM (peptides, Table 4)&item= CC[C@H](C)[C@H](NC(=O)[C@@H](NC(=O)[C@H](CCCNC(=N)N)NC(=O)[C@H](Cc1c[nH]c2ccccc12)NC(=O)[C@H](CCCNC(=N)N)NC(=O)[C@@H](N)CCCNC(=N)N)C(C)C)C(=O)N[C@H](C(=O)N[C@@H](CCCCN)C(=O)N[C@@H](Cc1c[nH]c2ccccc12)C(N)=O)C(C)C [LOP4] (H-RRWRVIVKW-NH2) 4 µM

GET /values?readout=MIC against PA910 in μM (peptides, Table 4)&item= CC[C@H](C)[C@H](NC(=O)[C@@H](N)Cc1ccccc1)C(=O)N[C@@H](CCCCN)C(=O)N[C@@H](Cc1c[nH]c2ccccc12)C(=O)N[C@@H](CCCCN)C(=O)N[C@@H](Cc1ccccc1)C(=O)N[C@@H](CCCNC(=N)N)C(=O)N1CCC[C@H]1C(=O)N[C@@H](Cc1c[nH]c2ccccc12)C(=O)N[C@@H](CCCCN)C(=O)N[C@@H](CCCCN)C(=O)N[C@@H](CCCNC(=N)N)C(=O)N[C@H](C(N)=O)[C@@H](C)O [Indopt 5] (H-FIKWKFRPWKKRT-NH2) 8 µM

GET /values?readout=MIC against PA910 in μM (peptides, Table 4)&item= CC[C@H](C)[C@H](NC(=O)[C@H](CCCNC(=N)N)NC(=O)[C@H](Cc1c[nH]c2ccccc12)NC(=O)[C@H](CCCNC(=N)N)NC(=O)[C@H](CCCNC(=N)N)NC(=O)[C@@H](N)CCCCN)C(=O)N[C@@H](Cc1c[nH]c2ccccc12)C(=O)N[C@@H](CC(C)C)C(=O)N[C@H](C(N)=O)C(C)C [LOP3] (H-KRRWRIWLV-NH2) 8 µM

GET /values?readout=MIC against PA910 in μM (peptides, Table 4)&item= CC[C@H](C)[C@H](N)C(=O)N[C@@H](CC(C)C)C(=O)N[C@@H](CCCCN)C(=O)N[C@@H](Cc1c[nH]c2ccccc12)C(=O)N[C@@H](CCCCN)C(=O)N[C@@H](CCSC)C(=O)N[C@@H](Cc1ccccc1)C(=O)N[C@@H](CCCCN)C(=O)N[C@@H](Cc1c[nH]c2ccccc12)C(=O)N[C@@H](CCCCN)C(=O)N[C@@H](Cc1c[nH]c2ccccc12)C(=O)N[C@@H](Cc1ccccc1)C(=O)N[C@@H](CCCNC(=N)N)C(N)=O [Indopt 12] (H-ILKWKMFKWKWFR-NH2) 4 µM

GET /values?readout=MIC against PA910 in μM (peptides, Table 4)&item= CC[C@H](C)[C@H](N)C(=O)N[C@@H](CC(C)C)C(=O)N[C@@H](CCCCN)C(=O)N[C@@H](Cc1c[nH]c2ccccc12)C(=O)N[C@@H](CCCCN)C(=O)N[C@H](C(=O)N[C@@H](Cc1ccccc1)C(=O)N[C@@H](CCCCN)C(=O)N[C@@H](Cc1c[nH]c2ccccc12)C(=O)N[C@@H](CCCCN)C(=O)N[C@@H](Cc1c[nH]c2ccccc12)C(=O)N[C@@H](Cc1ccccc1)C(=O)N[C@@H](CCCNC(=N)N)C(N)=O)[C@@H](C)CC [Indopt 10] (H-ILKWKIFKWKWFR-NH2) 4 µM

* * *

- Tested on: MDR P. aeruginosa PA253
- protocol_notes: microbe, parasite or virus in culture
- Type: cell-based, Pseudomonas aeruginosa
- protocol_conditions: MDR PA253, 18 h
Peptide text beside a SMILES is read from it.
measured_metric: MIC against MDR isolates of PA, PA253 (µM)
# number only, unit µM dropped from output

GET /values?readout=MIC against MDR isolates of PA, PA253&item= CC[C@H](C)[C@H](NC(=O)[C@H](CCCNC(=N)N)NC(=O)[C@H](C)NC(=O)[C@H](CCCNC(=N)N)NC(=O)[C@@H](N)CCCNC(=N)N)C(=O)N[C@H](C(=O)N[C@H](C(=O)N[C@H](C(=O)N[C@@H](CCCNC(=N)N)C(=O)N[C@H](C(=O)N[C@@H](C)C(=O)N[C@@H](CCCNC(=N)N)C(N)=O)C(C)C)[C@@H](C)CC)C(C)C)C(C)C [Peptide R2] (H-RRARIVVIRVAR-NH2) 32

GET /values?readout=MIC against MDR isolates of PA, PA253&item= CC[C@H](C)[C@H](N)C(=O)N[C@@H](CC(C)C)C(=O)N[C@@H](CCCCN)C(=O)N[C@@H](Cc1c[nH]c2ccccc12)C(=O)N[C@@H](CCCCN)C(=O)N[C@@H](CCCNC(=N)N)C(=O)N[C@@H](CCCCN)C(=O)N[C@@H](Cc1c[nH]c2ccccc12)C(=O)N[C@@H](Cc1c[nH]c2ccccc12)C(=O)N[C@@H](CCCCN)C(=O)N[C@@H](Cc1c[nH]c2ccccc12)C(=O)N[C@@H](CCCNC(=N)N)C(=O)N[C@@H](CCCNC(=N)N)C(N)=O [Indopt 9] (H-ILKWKRKWWKWRR-NH2) 4

* * *

- System: MDR P. aeruginosa PA253
- protocol_notes: microbe, parasite or virus in culture
- Format: cell-based, Pseudomonas aeruginosa
- protocol_conditions: MDR PA253, 18 h
- Protocol: We selected six different P. aeruginosa isolates that were described as MDR and had been isolated from clinical and municipal waste water ([Schwartz et al., 2006]). The minimal inhibitory concentration (MIC) was determined in a microdilution assay using Mueller-Hinton (MH) broth following a previously published protocol ([Wiegand et al., 2008]). Briefly, a twofold serial dilution of the antibiotics and peptides were prepared and added to a bacteria solution, resulting in 2–5 10^5 CFU/ml. […]
Peptide text beside a SMILES is read from it.
I'd appreciate it if you could supply MIC against MDR isolates of PA, PA253 values for the items below.
# number only, unit µM dropped from output

GET /values?readout=MIC against MDR isolates of PA, PA253&item= CC[C@H](C)[C@H](NC(=O)[C@H](CCCNC(=N)N)NC(=O)[C@H](C)NC(=O)[C@H](CC(C)C)NC(=O)[C@@H](N)CCCNC(=N)N)C(=O)N[C@H](C(=O)N[C@H](C(=O)N[C@H](C(=O)N[C@@H](CCCNC(=N)N)C(=O)N[C@H](C(=O)N[C@@H](C)C(=O)N[C@@H](CCCNC(=N)N)C(N)=O)C(C)C)[C@@H](C)CC)C(C)C)C(C)C [Bac2a] (H-RLARIVVIRVAR-NH2) 32

GET /values?readout=MIC against MDR isolates of PA, PA253&item= CC[C@H](C)[C@H](NC(=O)[C@H](CCCNC(=N)N)NC(=O)[C@H](C)NC(=O)[C@H](CC(C)C)NC(=O)[C@@H](N)CCCNC(=N)N)C(=O)N[C@H](C(=O)N[C@H](C(=O)N[C@H](C(=O)N[C@@H](CCCNC(=N)N)C(=O)N[C@@H](Cc1c[nH]c2ccccc12)C(=O)N[C@@H](C)C(=O)N[C@@H](CCCNC(=N)N)C(N)=O)[C@@H](C)CC)C(C)C)C(C)C [Peptide W10] (H-RLARIVVIRWAR-NH2) 16
